System: E. coli CFT073 (UPEC)
Assay remarks: MIC, standard microdilution assay, growing UPEC
Format: cell-based, Escherichia coli
Applied conditions: Escherichia coli; E. coli, pH 7.4; 1:4 diluted CA-MHB; read-out: MIC (μM) 1:4 CA-MHB
Each entry below carries its reported MIC.
Assay metric: MIC (µM)

Structure notation	Units of measure	Value
CO[C@H]1/C=C/O[C@@]2(C)Oc3c(C)c(O)c4c(O)c(c(/C=N/N5CCN(C)CC5)c(O)c4c3C2=O)NC(=O)/C(C)=C\C=C\[C@H](C)[C@H](O)[C@@H](C)[C@@H](O)[C@@H](C)[C@H](OC(C)=O)[C@@H]1C	µM	5
CC[C@H]1OC(=O)[C@@](C)(F)C(=O)[C@H](C)[C@@H](O[C@@H]2O[C@H](C)C[C@H](N(C)C)[C@H]2O)[C@](C)(OC)C[C@@H](C)C(=O)[C@H](C)[C@H]2N(CCCCn3cc(-c4cccc(N)c4)nn3)C(=O)O[C@]12C	µM	10
CC[C@H]1OC(=O)C[C@@H](O)[C@H](C)[C@@H](O[C@@H]2O[C@H](C)[C@@H](O[C@H]3C[C@@](C)(O)[C@@H](O)[C@H](C)O3)[C@H](N(C)C)[C@H]2O)[C@@H](CC=O)C[C@@H](C)C(=O)/C=C/C(C)=C/[C@@H]1CO[C@@H]1O[C@H](C)[C@@H](O)[C@@H](OC)[C@H]1OC	µM	160
CO[C@@H]1[C@@H](O[C@@H]2O[C@H](C)[C@@H](O[C@H]3C[C@@](C)(O)[C@@H](OC(=O)CC(C)C)[C@H](C)O3)[C@H](N(C)C)[C@H]2O)[C@@H](CC=O)C[C@@H](C)[C@@H](O)/C=C/C=C/C[C@@H](C)OC(=O)C[C@H]1OC(C)=O	µM	80
C=C[C@]1(C)C[C@@H](OC(=O)CSC(C)(C)CNC(=O)[C@H](N)C(C)C)[C@]2(C)[C@H](C)CC[C@]3(CCC(=O)[C@H]32)[C@@H](C)[C@@H]1O	µM	10

* * *

Tested on: intracellular S. flexneri 5a M90T in TC7 cells
Assay remarks: microbe, parasite or virus in culture
Assay type: cell-based, Shigella flexneri
Applied conditions: Shigella flexneri, TC7, 14 h
Assay metric: IC50

                         structure_notation  assay_metric   value
0  CO[C@@]12[C@H](COC(N)=O)C3=C(C(=O)C(C)=C(N)C3=O)N1C[C@@H]1N[C@@H]12          IC50  451 nM
1  N[C@@H]1CCCCN(c2c(F)cc3c(=O)c(C(=O)O)cn(C4CC4)c3c2Cl)C1          IC50  331 nM
2  N[C@@H]1[C@H]2CN(c3nc4c(cc3F)c(=O)c(C(=O)O)cn4-c3ccc(F)cc3F)C[C@@H]12          IC50   37 nM
3  CN1C[C@@H]2C[C@H]1CN2c1cc2c(cc1F)c(=O)c(C(=O)O)cn2C1CC1          IC50   52 nM

* * *

Each entry below carries its reported Fluorescence intensity (RFU), Mean, 32 x MIC.
Tested on: intracellular S. flexneri 5a M90T in TC7 cells
Assay remarks: microbe, parasite or virus in culture
Assay type: cell-based, Shigella flexneri
Applied conditions: TC7 cells infected with GFP-expressing S. flexneri, 14 h treatment, 32 x MIC
Assay metric: Fluorescence intensity (RFU), Mean, 32 x MIC

Compound	Units of measure	Value
CCN1CCN(c2cc3c(cc2F)c(=O)c(C(=O)O)cn3C2CC2)CC1 [Enrofloxacin]	RFU	1501.89
CC1Sc2c(C(=O)O)c(=O)c3cc(F)c(N4CCNCC4)cc3n21 (stereo not shown) [Ulifloxacin]	RFU	2065.19
CO/N=C1\CN(c2nc3c(cc2F)c(=O)c(C(=O)O)cn3C2CC2)CC1CN (stereo not shown) [Gemifloxacin]	RFU	2706.11
N[C@@H]1[C@H]2CN(c3nc4c(cc3F)c(=O)c(C(=O)O)cn4-c3ccc(F)cc3F)C[C@@H]12 [Trovafloxacin]	RFU	1579.94
CO[C@H]1/C=C/O[C@@]2(C)Oc3c(C)c(O)c4c(O)c(c(/C=N/N5CCN(C)CC5)c(O)c4c3C2=O)NC(=O)/C(C)=C\C=C\[C@H](C)[C@H](O)[C@@H](C)[C@@H](O)[C@@H](C)[C@H](OC(C)=O)[C@@H]1C [Rifampicin]	RFU	1042.53
N[C@@H]1CN(c2c(F)cc3c(=O)c(C(=O)O)cn([C@@H]4C[C@@H]4F)c3c2Cl)CC12CC2 [Sitafloxacin]	RFU	2083.61
CC[C@H]1OC(=O)[C@@](C)(F)C(=O)[C@H](C)[C@@H](O[C@@H]2O[C@H](C)C[C@H](N(C)C)[C@H]2O)[C@](C)(OC)C[C@@H](C)C(=O)[C@H](C)[C@H]2N(CCCCn3cc(-c4cccc(N)c4)nn3)C(=O)O[C@]12C [Solithromycin]	RFU	1533.19
NC1CCN(c2c(F)cc3c(=O)c(C(=O)O)cn(C4CC4)c3c2Cl)C1 (stereo not shown) [Clinafloxacin]	RFU	1621.75
CC1COc2c(N3CCN(C)CC3)c(F)cc3c(=O)c(C(=O)O)cn1c23 (stereo not shown) [Ofloxacin]	RFU	1616.14
COc1c(N2C[C@@H]3CCCN[C@@H]3C2)c(F)cc2c(=O)c(C(=O)O)cn(C3CC3)c12 [Moxifloxacin]	RFU	1608.56
N#Cc1c(N2C[C@@H]3NCCO[C@H]3C2)c(F)cc2c(=O)c(C(=O)O)cn(C3CC3)c12 [Finafloxacin]	RFU	2227.19
O=C(O)c1cn(C2CC2)c2cc(N3CCNCC3)c(F)cc2c1=O [Ciprofloxacin]	RFU	1734.42
COc1c(N2CCNC(C)C2)c(F)cc2c(=O)c(C(=O)O)cn(C3CC3)c12 (stereo not shown) [Gatifloxacin]	RFU	1768.58
CO[C@@]12[C@H](COC(N)=O)C3=C(C(=O)C(C)=C(N)C3=O)N1C[C@@H]1N[C@@H]12 [Mitomycin C]	RFU	1617.58
O=C(O)c1cn(-c2ccc(F)cc2)c2cc(N3CCNCC3)c(F)cc2c1=O [Sarafloxacin]	RFU	2149.72
CN1CCN(c2cc3c(cc2F)c(=O)c(C(=O)O)cn3-c2ccc(F)cc2)CC1 [Difloxacin]	RFU	1634.92
NC1CCN(c2nc3c(cc2F)c(=O)c(C(=O)O)cn3-c2ccc(F)cc2F)C1 (stereo not shown) [Tosufloxacin]	RFU	2463.67
C[C@@H]1CN(c2c(F)c(N)c3c(=O)c(C(=O)O)cn(C4CC4)c3c2F)C[C@H](C)N1 [Sparfloxacin]	RFU	1554.53
N[C@@H]1CCCCN(c2c(F)cc3c(=O)c(C(=O)O)cn(C4CC4)c3c2Cl)C1 [Besifloxacin]	RFU	1789.06
Cc1oc(=O)oc1CN1CCN(c2cc3c(cc2F)c(=O)c(C(=O)O)c2n3C(C)S2)CC1 (stereo not shown) [Prulifloxacin]	RFU	2886.92
CN1C[C@@H]2C[C@H]1CN2c1cc2c(cc1F)c(=O)c(C(=O)O)cn2C1CC1 [Danofloxacin]	RFU	1629.06
C[C@H]1NCc2cc(-c3ccc4c(=O)c(C(=O)O)cn(C5CC5)c4c3OC(F)F)ccc21 [Garenoxacin]	RFU	1840.28

* * *

System: non-growing UPEC CFT073
Assay remarks: Dilution-regrowth assay (screen, hit validation, dose-response) on stationary-phase UPEC
Format: cell-based, Escherichia coli
Applied conditions: E. coli in 1:4 CA-MHB (pH 7.4); drug concentration 0.5
Assay metric: Regrowth, OD600 at 6h or 8h after dilution into drug-free medium (average)

>>> print(df.to_string())
                                   molecule  value
0  CCCCC(CC)CNC(=N)NC(=N)NCCCCCCNC(=N)NC(=N)NCC(CC)CCCC (stereo not shown) [Alexidine]  0.630
1  [H]/N=C(\N/C(=N/[H])NCCCCCCNC(=N)NC(=N)Nc1ccc(Cl)cc1)Nc1ccc(Cl)cc1 [Chlorhexidine]  0.632
2  CO[C@@]12[C@H](COC(N)=O)C3=C(C(=O)C(C)=C(N)C3=O)N1C[C@@H]1N[C@@H]12 [Mitomycin C]  0.556
3  CC(=O)[O][Pt]([NH2])([Cl])([Cl])([NH]C1CCCCC1)[O]C(C)=O [Satraplatin]  0.612

* * *

Test system: non-growing P. aeruginosa DSM1117
Assay remarks: Dilution-regrowth assay (OD600, start-growth-time) on stationary-phase P. aeruginosa;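 further: OD600 read 8 h after dilution for P. aeruginosa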
Assay type: cell-based, Pseudomonas aeruginosa
Applied conditions: P. aeruginosa; concentration 0.1; average
Each entry below carries its reported Regrowth, OD600 at 6h or 8h after dilution into drug-free medium.
Assay metric: Regrowth, OD600 at 6h or 8h after dilution into drug-free medium

In [3]: df
Out[3]:
                                   molecule  value
0  CO/N=C1\CN(c2nc3c(cc2F)c(=O)c(C(=O)O)cn3C2CC2)CC1CN (stereo not shown)  0.486
1  CCCCCCCCN=c1ccn(CCCCCCCCCCn2ccc(=NCCCCCCCC)cc2)cc1  0.666
2  COc1c(N2C[C@@H]3CCCN[C@@H]3C2)c(F)cc2c(=O)c(C(=O)O)cn(C3CC3)c12  0.549
3  N[C@@H]1CCCCN(c2c(F)cc3c(=O)c(C(=O)O)cn(C4CC4)c3c2Cl)C1  0.563
